Sourced from patent US20250314655A1

TARGET OR TEST SYSTEM: T1, TRBC2 peptide (biotinylated) (human, also: biotinylated (site not given here))
T1 construct: In the monoclonal screen: biotinylated, 0.5 ug/ml on neutravidin-coated plates; In the polyclonal phage ELISA also presented as BSA or OA conjugate of the C-terminal-cysteine form; also called Bio-TRBC2; biotinylated TRBC2
T1 peptide: VLEDLKNVFPPEVAV
MEASUREMENT DESCRIPTION: TRF assay, scFv on biotin-peptide/neutravidin plate
No end group written: not given here.
VALUE TYPE: TRBC2 binding (TRF units)
Please reply with the bare figure in TRF units and do not write the unit itself.

Request: Param item = CP_03_F10 (scFv, not shown: small tags and cut ends, scFv from pSANG10-3F (His6, tri-FLAG), culture supernatant) scFv: EVQLVESGAEVKKPGASVKVSCKASGYTFTGYYMHWVRQAPGQGLEWMGRINPNSGGTNYAQKFQGRVTMTRDTSISTAYMELSSLRSEDTAVYYCARFGERYAFDIWGQGTLVTVSSGGGGSGGGGSGGGASQSELTQPPSASGSPGQSVTISCTGTSTDVGAFHFVSWYQHTPGKAPKLLISEVRKRASGVPDRFSGSRSGNTASLTVSGLQSEDEADYFCSAYTGSNYVFGSGTKLTVLGQPAA ; retrieve measured TRBC2 binding.
Response: 140000
